The entries below are paired with their reported Biodistribution Heart.
Tested on: LNCaP tumor xenograft-bearing CB17-SCID mice
Assay type: in vivo, mouse
Settings: 24 h p.i.
Please report the result as a number followed by the unit.

Molecule	Biodistribution Heart
CC(C)(C)[Si](F)(c1ccc(C(=O)NC[C@@H](NC(=O)CN2CCN(CC(=O)[O-])CCN(CC(=O)[O-])CCN(CC(=O)[O-])CC2)C(=O)N[C@H](CCCCNC(=O)CCC(=O)NCCC[C@@H](NC(=O)CC[C@H](NC(=O)O[C@@H](CCC(=O)O)C(=O)O)C(=O)O)C(=O)O)C(=O)O)cc1)C(C)(C)C.[Lu+3] [^natLu/[^177Lu]Lu-3]	0.02 ± 0.01 % ID/g
CC(C)(C)[Si](F)(c1ccc(C(=O)NC[C@@H](NC(=O)CN2CCN(CC(=O)[O-])CCN(CC(=O)[O-])CCN(CC(=O)[O-])CC2)C(=O)N[C@H](CCCCNC(=O)CCC(=O)NCCC[C@@H](NC(=O)CC[C@H](NC(=O)N[C@@H](CCc2nnn[nH]2)C(=O)O)C(=O)O)C(=O)O)C(=O)O)cc1)C(C)(C)C.[Lu+3] [^natLu/[^177Lu]Lu-11]	0.02 ± 0.00 % ID/g
CSCC[C@H](NC(=O)CC[C@H](NC(=O)N[C@@H](CCC(=O)N[C@H](CCCNC(=O)CCC(=O)NCCCC[C@@H](NC(=O)[C@@H](CNC(=O)c1ccc([Si](F)(C(C)(C)C)C(C)(C)C)cc1)NC(=O)CN1CCN(CC(=O)[O-])CCN(CC(=O)[O-])CCN(CC(=O)[O-])CC1)C(=O)O)C(=O)O)C(=O)O)C(=O)O)C(=O)O.[Lu+3] [^natLu/[^177Lu]Lu-5]	0.01 ± 0.00 % ID/g
CCCCCCC(NC(=O)C(CCC(=O)O)NC(=O)NC(CCC(=O)NC(CCCNC(=O)CCC(=O)NCCCCC(NC(=O)C(CNC(=O)c1ccc([Si](F)(C(C)(C)C)C(C)(C)C)cc1)NC(=O)CN1CCN(CC(=O)[O-])CCN(CC(=O)[O-])CCN(CC(=O)[O-])CC1)C(=O)O)C(=O)O)C(=O)O)C(=O)O.[Lu+3] (centres unmarked) [^natLu/[^177Lu]Lu-7]	0.03 ± 0.01 % ID/g

# next molecule below
Input: Entry C#CC[C@H](NC(=O)N[C@@H](CCC(=O)N[C@H](CCCNC(=O)CCC(=O)NCCCC[C@@H](NC(=O)[C@@H](CNC(=O)c1ccc([Si](F)(C(C)(C)C)C(C)(C)C)cc1)NC(=O)CN1CCN(CC(=O)[O-])CCN(CC(=O)[O-])CCN(CC(=O)[O-])CC1)C(=O)O)C(=O)O)C(=O)O)C(=O)O.[Lu+3] [^natLu/[^177Lu]Lu-10] has what Biodistribution Heart?
Output: 0.01 ± 0.00 % ID/g

---

Reported values: IC50 for PSMA (Homo sapiens, UniProt Q04609), one per item.
Numeric only. Scale: nM

Molecule	Numeric Readout
CSCC[C@H](NC(=O)CC[C@H](NC(=O)N[C@@H](CCC(=O)N[C@H](CCCNC(=O)CCC(=O)NCCCC[C@@H](NC(=O)[C@@H](CNC(=O)c1ccc([Si](F)(C(C)(C)C)C(C)(C)C)cc1)NC(=O)CN1CCN(CC(=O)[O-])CCN(CC(=O)[O-])CCN(CC(=O)[O-])CC1)C(=O)O)C(=O)O)C(=O)O)C(=O)O)C(=O)O.[Lu+3] [^natLu/[^177Lu]Lu-5]	26000

Input: Recall the recorded IC50 for CC(C)(C)[Si](F)(c1ccc(C(=O)NC[C@@H](NC(=O)CN2CCN(CC(=O)[O-])CCN(CC(=O)[O-])CCN(CC(=O)[O-])CC2)C(=O)N[C@H](CCCCNC(=O)CCC(=O)NCCC[C@@H](NC(=O)CC[C@H](NC(=O)O[C@@H](CCC(=O)O)C(=O)O)C(=O)O)C(=O)O)C(=O)O)cc1)C(C)(C)C.[Lu+3] [^natLu/[^177Lu]Lu-3] with PSMA (Homo sapiens, UniProt Q04609) and state it.
Sequence (Q04609 whole entry): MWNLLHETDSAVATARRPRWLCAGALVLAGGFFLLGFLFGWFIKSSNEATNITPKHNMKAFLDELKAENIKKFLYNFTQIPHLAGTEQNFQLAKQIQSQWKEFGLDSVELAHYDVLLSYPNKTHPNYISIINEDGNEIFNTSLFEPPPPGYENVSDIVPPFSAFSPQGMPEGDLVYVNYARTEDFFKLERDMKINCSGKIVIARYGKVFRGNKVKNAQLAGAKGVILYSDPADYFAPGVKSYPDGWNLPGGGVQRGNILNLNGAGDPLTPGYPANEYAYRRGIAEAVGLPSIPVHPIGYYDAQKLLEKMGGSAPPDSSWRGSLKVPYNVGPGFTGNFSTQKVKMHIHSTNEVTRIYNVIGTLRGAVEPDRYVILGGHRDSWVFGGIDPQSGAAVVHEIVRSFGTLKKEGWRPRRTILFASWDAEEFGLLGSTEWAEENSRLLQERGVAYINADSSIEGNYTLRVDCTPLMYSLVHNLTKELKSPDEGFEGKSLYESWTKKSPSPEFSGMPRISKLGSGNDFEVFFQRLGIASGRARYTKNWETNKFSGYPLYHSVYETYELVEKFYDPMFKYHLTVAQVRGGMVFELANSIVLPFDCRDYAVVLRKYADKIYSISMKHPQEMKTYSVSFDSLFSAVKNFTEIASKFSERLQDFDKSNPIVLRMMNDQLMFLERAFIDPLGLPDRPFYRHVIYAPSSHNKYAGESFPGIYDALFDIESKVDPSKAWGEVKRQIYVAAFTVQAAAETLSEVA
Output: 7.1

Input: Recall the recorded IC50 for C#CC[C@H](NC(=O)N[C@@H](CCC(=O)N[C@H](CCCNC(=O)CCC(=O)NCCCC[C@@H](NC(=O)[C@@H](CNC(=O)c1ccc([Si](F)(C(C)(C)C)C(C)(C)C)cc1)NC(=O)CN1CCN(CC(=O)[O-])CCN(CC(=O)[O-])CCN(CC(=O)[O-])CC1)C(=O)O)C(=O)O)C(=O)O)C(=O)O.[Lu+3] [^natLu/[^177Lu]Lu-10] with PSMA (Homo sapiens, UniProt Q04609) and state it.
Output: 138

Input: Recall the recorded IC50 for CC(C)(C)[Si](F)(c1ccc(C(=O)NC[C@@H](NC(=O)CN2CCN(CC(=O)[O-])CCN(CC(=O)[O-])CCN(CC(=O)[O-])CC2)C(=O)N[C@H](CCCCNC(=O)CCC(=O)NCCC[C@@H](NC(=O)CC[C@H](NC(=O)N[C@@H](CCc2nnn[nH]2)C(=O)O)C(=O)O)C(=O)O)C(=O)O)cc1)C(C)(C)C.[Lu+3] [^natLu/[^177Lu]Lu-11] with PSMA (Homo sapiens, UniProt Q04609) and state it.
Output: 16.4

Input: Recall the recorded IC50 for CCCCCCC(NC(=O)C(CCC(=O)O)NC(=O)NC(CCC(=O)NC(CCCNC(=O)CCC(=O)NCCCCC(NC(=O)C(CNC(=O)c1ccc([Si](F)(C(C)(C)C)C(C)(C)C)cc1)NC(=O)CN1CCN(CC(=O)[O-])CCN(CC(=O)[O-])CCN(CC(=O)[O-])CC1)C(=O)O)C(=O)O)C(=O)O)C(=O)O.[Lu+3] (stereo not shown) [^natLu/[^177Lu]Lu-7] with PSMA (Homo sapiens, UniProt Q04609) and state it.
Output: 6300
